Values compiled from ChEMBL document CHEMBL3988442.

# study system: Aspartate--tRNA(Asp/Asn) ligase (Mycobacterium tuberculosis (strain ATCC 25618 / H37Rv)) (UniProt P9WFW3); further: in the data most compounds retested in dose-response had high values
# Sequence (P9WFW3 whole entry): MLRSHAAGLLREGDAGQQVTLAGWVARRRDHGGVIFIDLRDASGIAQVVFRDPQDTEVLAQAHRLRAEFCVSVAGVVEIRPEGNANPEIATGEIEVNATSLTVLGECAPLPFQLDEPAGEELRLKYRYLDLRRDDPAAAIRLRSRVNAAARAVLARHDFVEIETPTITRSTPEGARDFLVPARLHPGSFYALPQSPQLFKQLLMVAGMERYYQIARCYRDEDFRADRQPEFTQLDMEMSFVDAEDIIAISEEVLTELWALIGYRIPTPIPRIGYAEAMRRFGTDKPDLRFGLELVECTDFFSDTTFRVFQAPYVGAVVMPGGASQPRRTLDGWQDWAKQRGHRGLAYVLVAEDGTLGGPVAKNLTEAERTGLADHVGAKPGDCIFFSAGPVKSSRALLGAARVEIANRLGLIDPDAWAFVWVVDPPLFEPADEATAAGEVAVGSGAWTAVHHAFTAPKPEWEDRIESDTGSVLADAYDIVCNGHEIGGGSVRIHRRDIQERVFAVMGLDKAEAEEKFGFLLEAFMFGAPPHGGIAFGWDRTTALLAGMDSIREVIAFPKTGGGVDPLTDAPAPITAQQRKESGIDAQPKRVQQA
# test protocol: Assay for Asp RNA synthetase-1 from Mycobacterium tuberculosis
# Type: functional
# Design: scale not given: direction of the effect not stated beside the values
# measurement setup: 30 µM
Percent Effect by entry:

{"molecule": "Nc1cc2c(nn1)CCN(C(=O)c1cccc3c1OCCO3)C2", "Percent Effect, %": 3.34}
{"molecule": "C[C@H]1C[C@@H]2CCN(C(=O)c3ccncn3)C[C@H]2O1", "Percent Effect, %": 4.15}
{"molecule": "N#Cc1ccccc1N1CCCN(C(=O)CCc2nccs2)CC1", "Percent Effect, %": -8.37}
{"molecule": "Cc1ccsc1CN(C)Cc1nc2c(cnn2C)c(=O)[nH]1", "Percent Effect, %": -2.46}
{"molecule": "N#Cc1cccc(C(=O)N2CCc3ncc(Cn4cccn4)n3CC2)c1", "Percent Effect, %": 3.32}
{"molecule": "NC(=O)c1cc(C2CCCN(CCOCC(F)(F)F)C2)n[nH]1 (centres undefined)", "Percent Effect, %": -1.37}
{"molecule": "CCc1nc(C2CCCN2C(=O)c2ccc3c(c2)nnn3CC)no1 (centres undefined)", "Percent Effect, %": -5.04}
{"molecule": "O=C(CCc1nccs1)N1CCN(c2ccccc2F)CC1", "Percent Effect, %": -6.57}
{"molecule": "CO[C@H]1CCN(S(=O)(=O)c2cn(C)cn2)[C@H]1Cc1cccnc1", "Percent Effect, %": -0.175}
{"molecule": "CN(C)C[C@H]1OC[C@@H]2CCN(C(=O)c3ccco3)C[C@@H]21", "Percent Effect, %": -2.13}
{"molecule": "CSc1ccc(S(=O)(=O)N2CCCCC2CCNC(C)=O)cc1 (centres undefined)", "Percent Effect, %": 7.57}
{"molecule": "Cc1cccc(-c2[nH]ncc2CNCC2CCN(CC(C)O)CC2)c1 (centres undefined)", "Percent Effect, %": 4.15}
{"molecule": "Cc1nn(CC(=O)N2CCC(Nc3cccnn3)CC2)c(C)c1Cl", "Percent Effect, %": -1.63}
{"molecule": "O=C(c1cc(Cl)c2c(c1)OCO2)N1CCN(c2ccccn2)CC1", "Percent Effect, %": -0.949}
{"molecule": "Cn1ccc(C(=O)N2CCC(Cc3cnc4[nH]ccc4c3)CC2)n1", "Percent Effect, %": 0.283}
{"molecule": "CN(C)C(=O)N1C[C@H]2CCC[C@@]2(COc2ccccn2)C1", "Percent Effect, %": 3.31}
{"molecule": "Cc1nn(-c2ccccc2)cc1C(=O)N1CCCC(n2cccn2)C1 (centres undefined)", "Percent Effect, %": -5.22}
{"molecule": "CCC1CN(CCNC(C)=O)CCN1CCOC (centres undefined)", "Percent Effect, %": 15}
{"molecule": "Cc1ccccc1-c1cncc(C2CCN(C(=O)CN(C)C)CC2)n1", "Percent Effect, %": 6.8}
{"molecule": "CCN(C(=O)COC)C(c1cccnc1)c1ccc2c(c1)CCO2 (centres undefined)", "Percent Effect, %": 2.07}
{"molecule": "Cc1ccc(NC2CCN(C(=O)c3cccn3C)CC2)nn1", "Percent Effect, %": -9.26}
{"molecule": "O=C(c1cscn1)N1CCN2C[C@H](OCc3cccnc3)C[C@H]2C1", "Percent Effect, %": 2.54}
{"molecule": "CC(C)C(=O)NCC(=O)N(C)C1CCCN(C2Cc3ccccc3C2)C1 (centres undefined)", "Percent Effect, %": 1.1}
{"molecule": "CCc1noc(C(C)N2CCC(NC(=O)c3ccc(C)s3)CC2)n1 (centres undefined)", "Percent Effect, %": 5.23}

###

# study system: Shiga toxin 2 (Escherichia coli O157:H7) (UniProt P09385+P09386)
# test protocol: E. coli 0.157:H7 Shiga Toxin SOP - stx2 screening assay
# Format: functional
# Parameters: scale not given: direction of the effect not stated beside the values
# measurement setup: 30 µM
Percent Effect by entry:

{"compound": "O=C(c1ccc[nH]1)N1C[C@H]2CN(Cc3cccc(F)c3)C(=O)[C@H]2C1", "study system": "Shiga toxin 2 (Escherichia coli O157:H7) (UniProt P09385+P09386)", "Percent Effect": "-9.53%"}
{"compound": "CN1CCN(C2CCN(CC(=O)NCC(F)(F)F)CC2)C1=O", "study system": "Shiga toxin 2 (Escherichia coli O157:H7) (UniProt P09385+P09386)", "Percent Effect": "-21%"}
{"compound": "COc1cccc(N2CCN(Cc3ncc[nH]3)CC2=O)c1", "study system": "Shiga toxin 2 (Escherichia coli O157:H7) (UniProt P09385+P09386)", "Percent Effect": "-4.16%"}
{"compound": "COc1ccc(OCC(=O)NC(C)c2ccccc2)c(C(=O)O)c1 (stereo unspecified)", "study system": "Shiga toxin 2 (Escherichia coli O157:H7) (UniProt P09385+P09386)", "Percent Effect": "-9.07%"}
{"compound": "CCc1nccn1C1CCCN(C(=O)c2cnc3ccccc3n2)C1 (stereo unspecified)", "study system": "Shiga toxin 2 (Escherichia coli O157:H7) (UniProt P09385+P09386)", "Percent Effect": "11.4%"}
{"compound": "CCOCC(O)CN1CCN(C(=O)c2cnc3n[nH]c(C)c3c2)CC1 (stereo unspecified)", "study system": "Shiga toxin 2 (Escherichia coli O157:H7) (UniProt P09385+P09386)", "Percent Effect": "30.1%"}

###

# study system: Shiga toxin 2 (Escherichia coli O157:H7) (UniProt P09385+P09386)
# test protocol: E. coli 0.157:H7 Shiga Toxin SOP - stx2 screening assay
# Type: functional
# Parameters: scale not given: direction of the effect not stated beside the values
# measurement setup: 30 µM
Percent Effect by entry:
endpoint label: Percent Effect (%)

{"molecule": "CN(C)c1cc2c(nn1)CCN(C(=O)C1Cc3ccccc3S1)C2 (configuration not stated)", "endpoint label": "Percent Effect", "unit abbreviation": "%", "numeric value": -20.9}
{"molecule": "O=C([C@H]1C[C@H]2OCC[C@H]2N(C(=O)C2CCOCC2)C1)N1CCCCO1", "endpoint label": "Percent Effect", "unit abbreviation": "%", "numeric value": -26.6}
{"molecule": "Cc1cnc(CN(Cc2ccccc2)CC(O)c2cccs2)cn1 (configuration not stated)", "endpoint label": "Percent Effect", "unit abbreviation": "%", "numeric value": -15.5}
{"molecule": "CCN1CCN(c2ncc(-c3cc(C)no3)c(-c3ccc(C)s3)n2)CC1", "endpoint label": "Percent Effect", "unit abbreviation": "%", "numeric value": 2.82}
{"molecule": "Cc1ccc2oc(C(=O)N3CCCC(c4noc(C)n4)C3)cc2n1 (configuration not stated)", "endpoint label": "Percent Effect", "unit abbreviation": "%", "numeric value": -27.4}
{"molecule": "CC(=O)N1CCCN(C(=O)CCc2c(C)noc2C)CC1", "endpoint label": "Percent Effect", "unit abbreviation": "%", "numeric value": 2.24}
{"molecule": "O=C1OCCC1N1CCN(C(=O)Cc2c[nH]c3ccccc23)CC1 (configuration not stated)", "endpoint label": "Percent Effect", "unit abbreviation": "%", "numeric value": 15.5}
{"molecule": "Cc1cc(C[C@@H]2COC[C@@H]2NC(=O)Cn2c(=O)oc3ccccc32)on1", "endpoint label": "Percent Effect", "unit abbreviation": "%", "numeric value": -25.4}
{"molecule": "CC(C)n1ccnc1CN1CCCN(C(=O)CC2C=CCC2)CC1 (configuration not stated)", "endpoint label": "Percent Effect", "unit abbreviation": "%", "numeric value": -0.917}
{"molecule": "O=C(c1ccc2c(c1)OCO2)N1CCN(c2cnccn2)CC1", "endpoint label": "Percent Effect", "unit abbreviation": "%", "numeric value": -14.6}
{"molecule": "CCCNC(=O)c1c(-n2cnnn2)sc2c1CCC2", "endpoint label": "Percent Effect", "unit abbreviation": "%", "numeric value": -42}
{"molecule": "CCn1ncc2c1C(COCC1CC1)CN(S(=O)(=O)N(C)C)C2 (configuration not stated)", "endpoint label": "Percent Effect", "unit abbreviation": "%", "numeric value": -9.58}
{"molecule": "CCCc1noc(CN(C)C(=O)C2COc3ccccc3C2)n1 (configuration not stated)", "endpoint label": "Percent Effect", "unit abbreviation": "%", "numeric value": -22.5}
{"molecule": "COc1cc(CNCc2c(C)nn(C)c2N(C)C)ccn1", "endpoint label": "Percent Effect", "unit abbreviation": "%", "numeric value": 13}
{"molecule": "O=C(Nc1ccc(F)cc1)N1C[C@H]2C[C@H](C(=O)N3CCOCC3)[C@@H](C1)O2", "endpoint label": "Percent Effect", "unit abbreviation": "%", "numeric value": -11.7}
{"molecule": "CNC(=O)COc1ccc(CNCc2ccc(F)cc2F)cc1", "endpoint label": "Percent Effect", "unit abbreviation": "%", "numeric value": -35.4}
{"molecule": "Cc1cccc(COC[C@H]2CC[C@H]3[C@H](CCN3C(=O)CC3CC3)O2)n1", "endpoint label": "Percent Effect", "unit abbreviation": "%", "numeric value": 1.2}
{"molecule": "CC(C)CN1CCC2(CCN(C(=O)c3ccc(F)cc3)CC2)C1=O", "endpoint label": "Percent Effect", "unit abbreviation": "%", "numeric value": -8.12}
{"molecule": "CS(=O)(=O)NCC1CCCN(C(=O)Nc2ccccc2Cl)C1 (configuration not stated)", "endpoint label": "Percent Effect", "unit abbreviation": "%", "numeric value": 10.6}
{"molecule": "Cc1cc(CN2CCOC(CN(C)C)C2)no1 (configuration not stated)", "endpoint label": "Percent Effect", "unit abbreviation": "%", "numeric value": 26.2}
{"molecule": "COc1nccc(N2CCN(Cc3ccc(C)cc3)C(=O)C2)c1C#N", "endpoint label": "Percent Effect", "unit abbreviation": "%", "numeric value": -64.8}
{"molecule": "Cc1cccc(-c2nc(CN3CCc4c(ncn4C)C3)no2)c1", "endpoint label": "Percent Effect", "unit abbreviation": "%", "numeric value": 4.04}
{"molecule": "Cc1nc(C)n(CC2CN(CC(=O)Nc3nccs3)CCO2)n1 (configuration not stated)", "endpoint label": "Percent Effect", "unit abbreviation": "%", "numeric value": 0.609}
{"molecule": "COCCN(C)CCN1CC2(CCN(C(=O)C3CCOC3)CC2)OC1=O (configuration not stated)", "endpoint label": "Percent Effect", "unit abbreviation": "%", "numeric value": -24.2}
{"molecule": "O=C(Nc1cccc2c1CCCC2)C1CCCN1c1nccs1 (configuration not stated)", "endpoint label": "Percent Effect", "unit abbreviation": "%", "numeric value": -43.4}
{"molecule": "Cn1c(NCC(O)c2ccc(F)cc2F)c(C#N)c(=O)n(C)c1=O (configuration not stated)", "endpoint label": "Percent Effect", "unit abbreviation": "%", "numeric value": -8.41}
{"molecule": "Cc1cc(CN2CCCC(C)(CO)C2)ccc1F (configuration not stated)", "endpoint label": "Percent Effect", "unit abbreviation": "%", "numeric value": 14.3}
{"molecule": "O=C(c1ccc2c(c1)COC2)N1CCC(Nc2ccccc2)CC1", "endpoint label": "Percent Effect", "unit abbreviation": "%", "numeric value": 1.98}
{"molecule": "O=C(NCCOc1cccc(Cl)c1)C1CC(=O)N(CC2CC2)C1 (configuration not stated)", "endpoint label": "Percent Effect", "unit abbreviation": "%", "numeric value": -10.5}
{"molecule": "CC(C)c1cc(C(F)(F)F)n2nc(CCC(=O)O)nc2n1", "endpoint label": "Percent Effect", "unit abbreviation": "%", "numeric value": 52.4}
{"molecule": "CC(C)c1noc(CCCC(=O)N2CCN(Cc3ccncc3)CC2)n1", "endpoint label": "Percent Effect", "unit abbreviation": "%", "numeric value": -20.6}
{"molecule": "O=C(CSC1=NS(=O)(=O)c2cc(F)ccc2N1)Nc1cccc(Cl)c1", "endpoint label": "Percent Effect", "unit abbreviation": "%", "numeric value": -1.14}
{"molecule": "Cc1ccccc1Cc1cnc(NC(=O)C2CNC(=O)N2)s1 (configuration not stated)", "endpoint label": "Percent Effect", "unit abbreviation": "%", "numeric value": 3.51}
{"molecule": "CN(C(=O)Cc1ccc2c(c1)OCCO2)C1CCCC1", "endpoint label": "Percent Effect", "unit abbreviation": "%", "numeric value": 0.101}
{"molecule": "Cc1cnn(CC2CN(c3ncnc4ccsc34)CCO2)c1 (configuration not stated)", "endpoint label": "Percent Effect", "unit abbreviation": "%", "numeric value": -0.262}
{"molecule": "O=C(c1cc(F)ccc1F)C1CCN(C(=O)c2cccnc2O)CC1", "endpoint label": "Percent Effect", "unit abbreviation": "%", "numeric value": 27.8}
{"molecule": "CC(NC(=O)NCCCc1n[nH]c(N)c1C#N)c1cccs1 (configuration not stated)", "endpoint label": "Percent Effect", "unit abbreviation": "%", "numeric value": -34.7}
{"molecule": "CN(Cc1cncnc1)Cc1cn2c(n1)CN(C1CCOC1)CC2 (configuration not stated)", "endpoint label": "Percent Effect", "unit abbreviation": "%", "numeric value": -15.6}
{"molecule": "CC(C)(C)CC(=O)N1CC[C@@H]2[C@H](CC1)N(S(C)(=O)=O)CCS2(=O)=O", "endpoint label": "Percent Effect", "unit abbreviation": "%", "numeric value": -21.6}
{"molecule": "CCCn1nc2c(cc1=O)CN(CC(=O)Nc1nnc(C)s1)CC2", "endpoint label": "Percent Effect", "unit abbreviation": "%", "numeric value": -2.85}
{"molecule": "CCCC(C)(C)NC(=O)c1ccc(CC2CC(=O)NC2=O)cc1 (configuration not stated)", "endpoint label": "Percent Effect", "unit abbreviation": "%", "numeric value": -9.64}
{"molecule": "CC(C)NC(=O)N1CCN(C(=O)N(C)C)CC2(CC(=O)N(C)C2)C1 (configuration not stated)", "endpoint label": "Percent Effect", "unit abbreviation": "%", "numeric value": -39.2}
{"molecule": "CCn1nc(-c2ccccc2F)ccc1=O", "endpoint label": "Percent Effect", "unit abbreviation": "%", "numeric value": -6.78}
{"molecule": "CC(C)COC(C)C(=O)N1CCN(S(C)(=O)=O)CC1 (configuration not stated)", "endpoint label": "Percent Effect", "unit abbreviation": "%", "numeric value": -2.13}
{"molecule": "CC(C)n1ccnc1CN1CCCN(C(=O)COC2CCCC2)CC1", "endpoint label": "Percent Effect", "unit abbreviation": "%", "numeric value": -3.07}
{"molecule": "CC(C)Cc1cc(NC(=O)c2ccc[nH]2)n(C)n1", "endpoint label": "Percent Effect", "unit abbreviation": "%", "numeric value": 7.24}
{"molecule": "CCn1ccnc1CN1CCN(CCOc2ccccc2OC)CC1", "endpoint label": "Percent Effect", "unit abbreviation": "%", "numeric value": -17.6}
